Data origin, for the record: the supplement of paper PMC7411054

Test system: WPMY1-TUBA1B-RELA
assay-notes: phenotypically active (imaging signature differs from DMSO and reproducible) at any of 0.3-9 uM (binary (1 = active, 0 = inactive)); higher = active
assay-context: treatment time: 24 h
Where a name gives a salt, the structure may show the parent alone.
measured-parameter: phenotypically active

>>> value_measured("COC(=O)C1=C(C)NC(C)=C(C(=O)OCCN(C)Cc2ccccc2)C1c1cccc([N+](=O)[O-])c1 (stereo unspecified)")
0
>>> value_measured("N#Cc1ccc2ncnc(NCCc3ccccc3)c2c1")
1
>>> value_measured("CNC(=O)c1cc(Oc2ccc(NC(=O)Nc3ccc(Cl)c(C(F)(F)F)c3)c(F)c2)ccn1")
0
>>> value_measured("O=C1NN(c2ccc(F)c(Cl)c2)C(=O)/C1=C\\c1ccc([N+](=O)[O-])o1")
0
>>> value_measured("CC[N+](CC)(CC)CCC(O)(c1ccccc1)C1CCCCC1 (stereo unspecified)")
0
>>> value_measured("O=C(Nc1c[nH]nc1-c1nc2cc(CN3CCOCC3)ccc2[nH]1)NC1CC1")
1
>>> value_measured("CC1=C(/C=C/C(C)=C/C=C/C(C)=C/C(=O)O)C(C)(C)CCC1")
0
>>> value_measured("C/C=C1/[C@H]2C=C(C)C[C@]1(N)c1ccc(=O)[nH]c1C2")
0
>>> value_measured("CN1C(CSCC(F)(F)F)Nc2cc(Cl)c(S(N)(=O)=O)cc2S1(=O)=O (stereo unspecified) [polythiazide]")
0
>>> value_measured("CC(C)(C)NC[C@H](O)COc1nsnc1N1CCOCC1")
0
>>> value_measured("O=C1CCC[C@@H]2[C@H]3CCC[N+]4([O-])CCC[C@@H](CN12)[C@@H]34 (stereo partly specified)")
0
>>> value_measured("C=CC(=O)N1CCC[C@@H](n2nc(-c3cccc(C(=O)Nc4ccc(C(C)C)c(C)c4)c3)c3c(N)ncnc32)C1")
1
>>> value_measured("CNCCCC12CCC(c3ccccc31)c1ccccc12")
1
>>> value_measured("CC(C)CNc1nc(-c2cccc3ncccc23)cn2c(-c3ccc(C(=O)NC4CC4)cc3)cnc12")
0
>>> value_measured("CNC1CCC2(C)C(=CCC3C2CCC24CN(C)C(C)C2CCC34)C1 (stereo unspecified)")
1
>>> value_measured("Cc1ccc(/C(=C/CN2CCCC2)c2cccc(/C=C/C(=O)O)n2)cc1")
1
>>> value_measured("Cc1c[nH]c2ncnc(-c3ccc(NC(=O)N(CCO)c4ccccc4)cc3)c12")
1
>>> value_measured("O=C(O)C(CO)c1ccccc1 (stereo unspecified)")
0
>>> value_measured("COc1cccc(-c2cc(F)ccc2[C@H]2Cc3nc(N)nc(C)c3C(=O)N2)n1")
1
>>> value_measured("CCCc1cc2c(N3CCN(C4=NCC(C)(C)S4)CC3)ncnc2s1 [MI 2 dihydrochloride]")
0
>>> value_measured("Cn1cc(-c2ccc3nnc(Sc4ccc5ncccc5c4)n3n2)cn1")
0
>>> value_measured("C[C@H](NC(=O)c1sccc1OCc1ccc(Cl)cc1)c1ccccc1")
0
>>> value_measured("COc1cc(N2CCC(O)CC2)ccc1Nc1cc(Nc2ccccc2S(=O)(=O)C(C)C)c2cc[nH]c2n1 [Mps1-IN-1 dihydrochloride]")
0
>>> value_measured("CC(=C/[C@@H](C)C(=O)c1ccc(N(C)C)cc1)/C=C/C(=O)NO")
1
>>> value_measured("COc1ccc(S(=O)(=O)N(CCO)c2ccccc2CN(C)C/C=C/c2ccc(Cl)cc2)cc1")
1
>>> value_measured("C[C@@H]1C[C@H]2[C@@H]3CCC4=CC(=O)C=C[C@]4(C)[C@@]3(Cl)[C@@H](O)C[C@]2(C)[C@@]1(OC(=O)c1ccco1)C(=O)CCl [mometasone furoate]")
0
>>> value_measured("CC[C@@H]1C(=O)N(C)c2cnc(Nc3ccc(C(=O)NC4CCN(C)CC4)cc3OC)nc2N1C1CCCC1")
1
>>> value_measured("CCO[C@@H](Cc1ccc(OCCc2ccc(OS(C)(=O)=O)cc2)cc1)C(=O)O")
0
>>> value_measured("Cc1cc(F)c(Nc2ncnc3cc(OCc4ccccc4)ccc23)cc1O")
1
>>> value_measured("CCCCN1C[C@H](O)[C@@H](O)[C@H](O)[C@H]1CO [Miglustat hydrochloride]")
0
>>> value_measured("O=C1Nc2ccc(F)cc2C1=C1Nc2ccccc2C1=NO")
1
>>> value_measured("CN(C)CCc1c[nH]c2ccc(Cn3cncn3)cc12")
0
>>> value_measured("Cc1ccc(S(=O)(=O)c2ccc([N+](=O)[O-])o2)cc1")
1
>>> value_measured("OC[C@H]1NC[C@H](O)[C@@H](O)[C@@H]1O")
0
>>> value_measured("COc1cc2nc(N3CCN(C(=O)c4ccco4)CC3)nc(N)c2cc1OC")
0
>>> value_measured("C=C1CN(Cc2ccc(C(=O)Nc3ccccc3N)cc2)C(=O)c2ccccc21")
1
